Every entry's value here was drawn from ChEMBL document CHEMBL3885881.

Organism: Rattus norvegicus
Test: DrugMatrix - Regimen: Daily Repeat
Format: toxicity, organism-based, Sprague-Dawley
Parameters: regimen Daily Repeat, gender Male, age 6-8 weeks
Settings: in vivo, po, 0 mg/kg, 120 h, tissue Plasma, route oral GAVAGE, dose level Control, time 5 day, […]
ENDPOINT_NAME: PHOSPHORUS (mg/dL)
Numbers only, in mg/dL.

O=C(O)COC(=O)Cc1ccccc1Nc1c(Cl)cccc1Cl
10.32
O=C(Nc1ccc(Cl)c(Cl)c1)c1cc(Cl)cc(Cl)c1O [3,3',4',5-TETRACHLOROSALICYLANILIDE]
10.88
CCC(C)(C)C(=O)O[C@H]1C[C@@H](C)C=C2C=C[C@H](C)[C@H](CC[C@@H]3C[C@@H](O)CC(=O)O3)[C@H]21
9.98
CO[C@H]1O[C@@H]2O[C@@]3(C)CC[C@H]4[C@H](C)CC[C@@H]([C@H]1C)[C@@]24OO3
11.7
CS(=O)(=O)c1ccc(C2=C(c3ccccc3)C(=O)OC2)cc1
8.72

I have 4 molecules here; please give me PHOSPHORUS for each one.
1. c1ccc2c(c1)Nc1ccccc1S2
2. CCOC(=O)C1=C(C)NC(C)=C(C(=O)OCC)C1c1ccccc1/C=C/C(=O)OC(C)(C)C
3. CC(C)(c1ccc(O)cc1)c1ccc(O)cc1
4. Cc1cccc(C)c1NC(=O)C(C)N (centres undefined) [TOCAINIDE]

Response:
1: 8.72; 2: 10.43; 3: 8.18; 4: 10

###

Species: Rattus norvegicus
Test: DrugMatrix - Regimen: Daily Repeat
Type: toxicity, organism-based, Sprague-Dawley
Set-up: regimen Daily Repeat, gender Male, age 6-8 weeks
Details: in vivo, po, 0 mg/kg, 120 h, tissue Plasma, route oral GAVAGE, dose level Control, time 5 day, vehicle 100 % WATER
ENDPOINT_NAME: TOTAL PROTEIN (G/DL)
Numbers only, in G/DL.

Solved entries (count: 8):
CC(Cl)(Cl)Cl
5.98
CCN(CC)C(=S)SSC(=S)N(CC)CC
6.07
CCC1(c2ccccc2)C(=O)NC(=O)NC1=O
5.82
Cc1cn([C@H]2C=C[C@@H](CO)O2)c(=O)[nH]c1=O
6.12
NN [HYDRAZINE]
6.12
C[N+](C)(C)CCOC(N)=O.[Cl-]
6.12
C1CCN2C[C@@H]3C[C@@H](CN4CCCC[C@@H]34)[C@H]2C1
5.98
Cc1cc(C(C)(C)C)c(O)c(C)c1CC1=NCCN1
6.1

Now, please, on to the next compound.
Prompt: So what's the measured TOTAL PROTEIN for this one? CN1C(=O)OC(C)(C)C1=O
Response: 6.83

###

Organism: Rattus norvegicus
Test: DrugMatrix - Regimen: Daily Repeat
Assay type: toxicity, organism-based, Sprague-Dawley
Set-up: regimen Daily Repeat, gender Male, age 6-8 weeks
Conditions: in vivo, po, 0 mg/kg, 72 h, tissue Plasma, route oral GAVAGE, dose level Control, time 3 day, […]
Would you kindly list BLOOD UREA NITROGEN for each of these compounds?
Answers are plain numbers, in mg/dL.

CCOC(=O)C1=C(C)NC(C)=C(C(=O)OCC)C1c1ccccc1/C=C/C(=O)OC(C)(C)C
14
COc1ccccc1OCCNCC(O)COc1cccc2[nH]c3ccccc3c12 (stereo not drawn)
12.17
c1ccc2c(c1)Nc1ccccc1S2
13

I have 3 compounds here; please give me BLOOD UREA NITROGEN for each one.
1. O=C(Nc1ccc(Cl)c(Cl)c1)c1cc(Cl)cc(Cl)c1O [3,3',4',5-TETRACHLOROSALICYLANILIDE]
2. CC(C)(c1ccc(O)cc1)c1ccc(O)cc1
3. CS(=O)(=O)c1ccc(C2=C(c3ccccc3)C(=O)OC2)cc1

Response:
[13.17, 12.33, 13]

I have 2 compounds here; please give me BLOOD UREA NITROGEN for each one.
1. CO[C@H]1O[C@@H]2O[C@@]3(C)CC[C@H]4[C@H](C)CC[C@@H]([C@H]1C)[C@@]24OO3
2. CC#C[C@]1(O)CC[C@H]2[C@@H]3CCC4=CC(=O)CCC4=C3[C@@H](c3ccc(N(C)C)cc3)C[C@@]21C

Response:
[16.33, 14.5]

###

Species on record: Rattus norvegicus
Experiment: DrugMatrix - Regimen: Daily Repeat
Type: toxicity, organism-based, Sprague-Dawley
Set-up: regimen Daily Repeat, gender Male, age 6-8 weeks
Conditions: in vivo, po, 0 mg/kg, 72 h, tissue Plasma, route oral GAVAGE, dose level Control, time 3 day, vehicle .5 % CMC
Would you kindly list CHLORIDE for each of these compounds?
Numbers only, in MEQ/L.

Solved entries (count: 9):
CCN1C[C@]2(COC)[C@H](O)C[C@H](OC)[C@@]34[C@@H]5C[C@@]6(O)[C@H](OC(=O)c7ccccc7)[C@@H]5[C@@](OC(C)=O)([C@@H]([C@H](OC)[C@H]23)[C@@H]14)[C@@H](O)[C@@H]6OC [ACONITINE]
96.67
COc1cc(/C=C/C(=O)O)ccc1O [FERULATE]
101.8
CC(C)NCC(O)COc1ccc(CC(N)=O)cc1 (stereo not given) [ATENOLOL]
105.17
CC(C)Cc1ccc([C@H](C)C(=O)O)cc1 [DEXIBUPROFEN]
104.33
O=C1c2ccccc2C(=O)C1c1ccccc1 [PHENINDIONE]
96.67
CC(=O)Nc1ccc2c(c1)Cc1ccccc1-2 [2-ACETYLAMINOFLUORENE]
100.83
Cl.NC[C@H]1CC[C@H](C(=O)Oc2ccc(CCC(=O)O)cc2)CC1 [CETRAXATE HYDROCHLORIDE]
101.8
CCN1CCCC1CNC(=O)c1cc(S(N)(=O)=O)ccc1OC (stereo not given) [SULPIRIDE]
99.17
COc1ccc(Cl)cc1C(=O)NCCc1ccc(S(=O)(=O)NC(=O)NC2CCCCC2)cc1 [GLYBURIDE]
99.33

Now, please, on to the next compound.
Prompt: So what's the measured CHLORIDE for this one? O=C(O)CCc1nc(-c2ccccc2)c(-c2ccccc2)o1 [OXAPROZIN]
Response: 99.17

###

Species: Rattus norvegicus
Experiment: DrugMatrix - Regimen: Daily Repeat
Format: toxicity, organism-based, Sprague-Dawley
Set-up: regimen Daily Repeat, gender Male, age 6-8 weeks
Conditions: in vivo, po, 0 mg/kg, 120 h, tissue Plasma, route oral GAVAGE, dose level Control, time 5 day, vehicle 100 % WATER
ENDPOINT_NAME: CREATININE (mg/dL)
Numbers only, in mg/dL.

Solved entries (count: 5):
CC(Cl)(Cl)Cl
0.17
NN [HYDRAZINE]
0.18
C[N+](C)(C)CCOC(N)=O.[Cl-]
0.2
CCN(CC)C(=S)SSC(=S)N(CC)CC
0.15
CN1C(=O)OC(C)(C)C1=O
0.58

I have 4 compounds here; please give me CREATININE for each one.
1. CCC1(c2ccccc2)C(=O)NC(=O)NC1=O
2. Cc1cc(C(C)(C)C)c(O)c(C)c1CC1=NCCN1
3. C1CCN2C[C@@H]3C[C@@H](CN4CCCC[C@@H]34)[C@H]2C1
4. Cc1cn([C@H]2C=C[C@@H](CO)O2)c(=O)[nH]c1=O

Response:
0.17
0.18
0.17
0.2

###

Species: Rattus norvegicus
Experiment: DrugMatrix - Regimen: Daily Repeat
Type: toxicity, organism-based, Sprague-Dawley
Set-up: regimen Daily Repeat, gender Male, age 6-8 weeks
Conditions: in vivo, po, 0 mg/kg, 72 h, tissue Blood, route oral GAVAGE, dose level Control, time 3 day, vehicle 100 % SALINE
Would you kindly list ABSOLUTE EOSINOPHIL for each of these molecules?
One number for each entry, in CELLS/uL.

Solved entries (count: 4):
Cc1ccnc2c1NC(=O)c1cccnc1N2C1CC1
37
O=[As][O-].[Na+] [SODIUM ARSENITE]
66
CC(CN1c2ccccc2Sc2ccccc21)N(C)C (stereo not given)
65.67
CCO
66

Now, please, on to the next molecule.
Prompt: So what's the measured ABSOLUTE EOSINOPHIL for this one? CCN(CC)N=O
Response: 0

###

Species: Rattus norvegicus
Assay: DrugMatrix - Regimen: Daily Repeat
Type: toxicity, organism-based, Sprague-Dawley
Set-up: regimen Daily Repeat, gender Male, age 6-8 weeks
Conditions: in vivo, po, 0 mg/kg, 120 h, tissue Plasma, route oral GAVAGE, dose level Control, time 5 day, […]
ENDPOINT_NAME: POTASSIUM (MEQ/L)
Numbers only, in MEQ/L.

Solved entries (count: 4):
O=C(O)COC(=O)Cc1ccccc1Nc1c(Cl)cccc1Cl
5.13
CCOC(=O)C1=C(C)NC(C)=C(C(=O)OCC)C1c1ccccc1/C=C/C(=O)OC(C)(C)C
5.46
COc1ccccc1OCCNCC(O)COc1cccc2[nH]c3ccccc3c12 (stereo not given)
5.13
CC(C)(c1ccc(O)cc1)c1ccc(O)cc1
5.46

Now, please, on to the next molecule.
Prompt: So what's the measured POTASSIUM for this one? c1ccc2c(c1)Nc1ccccc1S2
Response: 5.34
